Molecular target: SMARCA4 (Homo sapiens, UniProt P51532)
Construct: SMARCA2/SMARCA4 protein degradation selectivity in MV4-11 cells; endogenous in cells; host or cells: MV4-11
Sequence (P51532 whole entry): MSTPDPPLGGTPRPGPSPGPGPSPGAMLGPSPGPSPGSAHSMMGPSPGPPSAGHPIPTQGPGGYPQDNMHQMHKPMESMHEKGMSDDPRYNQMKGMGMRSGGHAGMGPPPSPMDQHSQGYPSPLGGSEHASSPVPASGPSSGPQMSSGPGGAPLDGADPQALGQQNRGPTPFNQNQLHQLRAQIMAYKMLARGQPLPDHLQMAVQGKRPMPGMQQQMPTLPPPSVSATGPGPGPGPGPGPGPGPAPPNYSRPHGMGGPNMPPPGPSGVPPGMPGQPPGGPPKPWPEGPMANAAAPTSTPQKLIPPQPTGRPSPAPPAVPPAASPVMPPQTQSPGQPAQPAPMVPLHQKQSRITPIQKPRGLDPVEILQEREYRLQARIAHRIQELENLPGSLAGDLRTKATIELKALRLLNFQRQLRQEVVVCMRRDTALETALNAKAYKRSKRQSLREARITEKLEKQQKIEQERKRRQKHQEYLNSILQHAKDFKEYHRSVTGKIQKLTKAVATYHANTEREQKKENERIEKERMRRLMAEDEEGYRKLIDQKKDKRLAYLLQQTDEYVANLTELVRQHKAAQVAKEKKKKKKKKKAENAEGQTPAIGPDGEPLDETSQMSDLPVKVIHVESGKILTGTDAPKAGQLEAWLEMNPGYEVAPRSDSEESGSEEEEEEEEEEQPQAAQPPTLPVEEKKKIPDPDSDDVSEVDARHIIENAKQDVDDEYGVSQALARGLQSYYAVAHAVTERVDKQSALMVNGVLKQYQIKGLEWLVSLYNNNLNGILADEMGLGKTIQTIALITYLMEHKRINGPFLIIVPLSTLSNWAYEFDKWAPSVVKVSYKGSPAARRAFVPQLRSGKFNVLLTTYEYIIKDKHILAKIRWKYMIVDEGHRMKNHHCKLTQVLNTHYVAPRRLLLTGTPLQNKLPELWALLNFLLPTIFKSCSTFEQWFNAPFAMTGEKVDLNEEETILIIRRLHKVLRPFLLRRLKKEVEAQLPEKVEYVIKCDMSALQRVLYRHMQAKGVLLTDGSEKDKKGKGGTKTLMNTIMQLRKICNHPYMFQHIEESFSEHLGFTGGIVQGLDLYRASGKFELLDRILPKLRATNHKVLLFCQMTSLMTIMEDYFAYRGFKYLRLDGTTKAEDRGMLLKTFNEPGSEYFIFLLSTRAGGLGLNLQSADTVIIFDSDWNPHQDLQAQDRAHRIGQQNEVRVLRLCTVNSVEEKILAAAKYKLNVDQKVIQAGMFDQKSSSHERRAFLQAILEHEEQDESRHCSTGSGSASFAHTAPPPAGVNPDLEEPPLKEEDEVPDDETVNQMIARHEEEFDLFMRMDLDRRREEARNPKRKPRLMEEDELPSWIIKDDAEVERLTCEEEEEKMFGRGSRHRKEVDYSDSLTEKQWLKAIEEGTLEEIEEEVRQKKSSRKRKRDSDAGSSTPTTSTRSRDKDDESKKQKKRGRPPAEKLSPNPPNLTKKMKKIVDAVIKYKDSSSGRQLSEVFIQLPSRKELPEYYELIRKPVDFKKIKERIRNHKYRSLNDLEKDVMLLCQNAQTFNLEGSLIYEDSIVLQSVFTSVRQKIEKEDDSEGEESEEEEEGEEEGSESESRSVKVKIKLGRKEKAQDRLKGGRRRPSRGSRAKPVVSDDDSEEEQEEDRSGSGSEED
Test: SMARCA4 Western blot degradation in MV4-11 cells
Type: cell-based
Conditions: MV4-11, MV4-11 cells, 24 h; read-out: SMARCA4 MSD MV411 degradation 24 h: average Dmax %
Experimental readout: Dmax

Below, 5 molecules whose answers are already recorded.
C#Cc1ccc([C@H](C)NC(=O)[C@@H]2C[C@@H](O)CN2C(=O)[C@@H](OC(=O)N2CC3(CC(N4CCC(c5cnc(N6CCc7[nH]c8nnc(-c9ccccc9O)cc8c7[C@H]6C)nc5)CC4)C3)C2)C(C)(C)C)cc1 ... 70 to 90%
C#Cc1ccc([C@@H](CO)NC(=O)[C@@H]2C[C@@H](O)CN2C(=O)[C@@H](NC(=O)N2CC3(CC(N4CCC(c5cnc(N6CCc7[nH]c8nnc(-c9ccccc9O)cc8c7[C@H]6C)nc5)CC4)C3)C2)C(C)(C)C)nc1 ... < 50%
C#Cc1ccc(CNC(=O)[C@@H]2C[C@@H](O)CN2C(=O)[C@@H](NC(=O)N2CC3(CC(N4CCC(N5CCC(N6CCc7[nH]c8nnc(-c9ccccc9O)cc8c7[C@@H]6C)CC5)CC4)C3)C2)C(C)(C)C)cc1 ... > 90%
C#Cc1ccc(CNC(=O)[C@@H]2C[C@@H](O)CN2C(=O)[C@@H](NC(=O)N2CCC(N3CC4(CC(N5CC6(CC(N7CCc8[nH]c9nnc(-c%10ccccc%10O)cc9c8[C@H]7C)C6)C5)C4)C3)CC2)C(C)(C)C)cc1 ... < 50%
C#Cc1ccc(CNC(=O)[C@@H]2C[C@@H](O)CN2C(=O)[C@H](NC(=O)N2CC3(CC(N4CCC(c5cnc(N6CCc7[nH]c8nnc(-c9ccccc9O)cc8c7[C@H]6C)nc5)CC4)C3)C2)C(C)(C)CCN2CCN[C@@H](C(=O)O)C2)cc1 ... < 50%

Look up Dmax: Cc1ncsc1-c1ccc(CNC(=O)[C@@H]2C[C@@H](O)CN2C(=O)[C@@H](NC(=O)C2(F)CC2)C(C)(C)C)c(O[C@H]2CC[C@H](N3CCC(N4CCC(c5cnc(N6CCc7[nH]c8nnc(-c9ccccc9O)cc8c7[C@@H]6C)nc5)CC4)CC3)CC2)c1 (single isomer, unassigned)
> 90%

Please look up its Dmax: C#Cc1ccc([C@H](CO)NC(=O)[C@@H]2C[C@@H](O)CN2C(=O)[C@@H](NC(=O)N2CC3(CC(N4CCC(c5cnc(N6CCc7[nH]c8nnc(-c9ccccc9O)cc8c7[C@H]6C)nc5)CC4)C3)C2)C(C)(C)C)cc1
> 90%

Given the entry Cc1ncsc1-c1ccc(CNC(=O)[C@@H]2C[C@@H](O)CN2C(=O)C(c2cc(OCCCCN3CCC(c4cnc(N5CCc6[nH]c7nnc(-c8ccccc8O)cc7c6[C@H]5C)nc4)CC3)no2)C(C)C)cc1 (stereo partly drawn) , report its measured Dmax.
70 to 90%

Looking for the measured Dmax of C#Cc1ccc(CNC(=O)[C@@H]2C[C@@H](O)CN2C(=O)[C@@H](NC(=O)N2CC3(CC(N4CCN([C@H]5CC[C@H](N6CCc7[nH]c8nnc(-c9ccccc9O)cc8c7[C@H]6C)CC5)CC4)C3)C2)C(C)(C)C)cc1 , can you help?
> 90%
